Cited source: the supplement of paper PMC7125110

log10 KM values by entry
B1: glmS ribozyme (parent)
chain: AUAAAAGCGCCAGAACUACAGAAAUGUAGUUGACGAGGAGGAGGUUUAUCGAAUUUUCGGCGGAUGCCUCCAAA

- Variants of: B1
- PROTOCOL_SUMMARY: KM; higher = weaker cofactor use; RNA array
- CONDITION_DESCRIPTION: with glucosamine-6-phosphate
Remember, log10 of KM, in µM.

Known log10 KM results, listed for orientation:
AUAAAAGCGCCAGAACUACAGAAAUGUAGUUGACGAGGCUGAGGUUUAUCGAAUUUUCGGCGGAUGCCUCCAAA: 3.23
AUAAAAGCGCCAGAACUACAGAAAUGUAGUUGACGAGGAGGAGGUUUAUCGAAUUUUCGGCGGGUGCCACCAAA: 3.09
AUAAAAGCGCCAGAACUACAGAAAUGUAGUUGACGAGGAGGAGGUUUAUCGAAGUUUUGGCGGAUGCCUCCAAA: 3.79
AUAAAAGCGCCAGAAGUACAGAAAUGUAGUGGACGAGGAGGAGGUUUAUCGAAUUUUCGGCGGAUGCCUCCAAA: 3.37
AUAAAAGCGCCAGGACUACAGAAAUGUAGUUGACGAGGAGGAGGUUUAUCGAAUUUUCGGCGGAUGGCUCCAAA: 3.18
AUAAAAGCGCCAGAACUACAGAAAUGUAGUUGACGAGGAAGAGGAUUAUCGAAUUUUCGGCGGAUGCCUCCAAA: 2.71
AUAAAAGCGCCGGAACUACAGAAAUGUAGUUGACGAGGAGGAGGAUUAUCGAAUUUUCGGCGGAUGCCUCCAAA: 3.54
AUAAAAGCGCCAGUACUACAGAAAUGUAGUUGACGAGGAGGAGGUUUCUCGAAUUUUCGGCGGAUGCCUCCAAA: 3.31

I would be grateful if you could share the reported log10 KM for `AUAAAAGCGCCAGAACUACAGAAAUGUAGUUGACGAGGAGGAGGUUUAUGGAAUUUUCGGCGGAUGCCUCCAAA` .
1.96

Next up: `AUAAAAGCGCCACAACUACAGAAAUGUAGUCGACGAGGAGGAGGUUUAUCGAAUUUUCGGCGGAUGCCUCCAAA`
3.54

Also `AUAAAAGCGCCAGAACUACAGAAAUGUAGUUGACGAGGAGGAAGUUUAUCGAAUUUUCGGCGGAUGGCUCCAAA` , if possible.
3.32

Next entry: `AUAAAAGCGCCAGAACUACAGAAAUGUAGUUGACGAGGAAGAGGUUUAUCGAAUGUUCGGCGGAUGCCUCCAAA`
2.57

Same thing, different variant: `AUAAAAGCGCCAGAACUACAGAAAUGUAGUUGACGAGGAGGAUGUUUAUCGAAUUUUCGGCGGAUGGCUCCAAA`
3.01

Same thing, different variant: `AUAAAAGCGCCUGAACUACAGAAAUGUAGUUGACGAGGAGGAAGUUUAUCGAAUUUUCGGCGGAUGCCUCCAAA`
3.30

# iterate: `AUAAAAGCGCCAGUACUACAGAAAUGUAGUUGACGAGGAGUAGGUUUAUCGAAUUUUCGGCGGAUGCCUCCAAA`
3.00

Further, for `AUAAAAGCGCCAGAACUACAGAAAUGUAAUUAACGAGGAGGAGGUUUAUCGAAUUUUCGGCGGAUGCCUCCAAA` ?
3.30

Can you check `AUAAAAGCGCCAGAACUACAGAAAUGUAGUUGACGAGGAGGGAGUUUAUCGAAUUUUCGGCGGAUGCCUCCAAA` next?
3.16

Next up: `AUAAAAGCGCCAGAACUACAGAAAUGUAGUUGACGAGGAGGAGGUUUAUCGAAUUUCCGGCGGAUGCUUCCAAA`
3.08

// same read-out, input: `AUAAAAGCGCCAGAUCUACAGAAAUGUAGUUGACGAGGACGAGGUUUAUCGAAUUUUCGGCGGAUGCCUCCAAA`
3.03

And the next one, `AUAAAAGCGCCAGAACUACAGAAAUGUAGUUGACGAGGAGAAGGCUUAUCGAAUUUUCGGCGGAUGCCUCCAAA` ?
2.48

Record: `AUAAAAGCGCCAGAACUACAGAAAUGUAGUUGACGAGGAGGAGGUUUAUCGAACUUUCGGCCGAUGCCUCCAAA`
2.12
